# System: S. enterica typhimurium WT;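 also: active when median AUC fell below 0.1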
# test: growth AUC normalised to DMSO control (median) (fraction of control); higher = less growth inhibition, active = hit call of the paper;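 active = normalised median growth AUC below 0.1 of DMSO control; inactive = AUC 0.1 or higher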
# conditions used: 20 µM
Structures can show the parent of a compound that is named as a salt.
Output constraint: value belongs to YES = active, NO = inactive

Reference set, count: 3
                                   compound  cat
0    O=C(O)Cc1sc(-c2ccccc2)nc1-c1ccc(Cl)cc1   NO
1  COc1c(N2CCNC(C)C2)c(F)cc2c(=O)c(C(=O)O)cn(C3CC3)c12 (stereo unspecified)  YES
2  C[C@H](CCC(=O)O)[C@H]1CC[C@H]2[C@@H]3C(=O)C[C@@H]4CC(=O)CC[C@]4(C)[C@H]3CC(=O)[C@]12C [Dehydrocholic acid]   NO

q: For c1ccc(CN(CC2=NCCN2)c2ccccc2)cc1 [Antazoline hydrochloride] , which call appears in the assay record?
a: NO

q: Recorded test call requested for CNC(=O)OCc1cccc(COC(=O)NC)n1 [Pyricarbate]
a: NO

q: What did the test return for NC(=O)c1cccnc1 [Nicotinamide] ?
a: NO
